The reported numbers originate from patent US20230374132A1.

- tgt: T1, human CD3E&G complex (Sino Biological Inc., CT041-H0305H) (human, UniProt P07766 23-126; P09693 23-116)
- T1 construct: bought heterodimer; also called human CD3E&G antigen
- protocolText: BLI, antibody on sensor
# key: entry, value: koff
// units = s⁻¹; emit number, no label

Illustrative cases are given below, each with its answer.
binder	readoutNumber
hzsp34.89 (antibody, human IgG1, lambda, L234A L235A, V domains shown, CDR mutant of hzsp34.24; IgG1 L234A L235A, lambda) VH: EVQLVESGGGLVQPGGSLKLSCAASGFTFNTYAMNWVRQASGKGLEWVGRIRSKYNNYATYYADSVKDRFTISRDDSKSTLYLQMNSLKTEDTAVYYCARHGNAGQSYVSWFAYWGQGTTVTVSS VL: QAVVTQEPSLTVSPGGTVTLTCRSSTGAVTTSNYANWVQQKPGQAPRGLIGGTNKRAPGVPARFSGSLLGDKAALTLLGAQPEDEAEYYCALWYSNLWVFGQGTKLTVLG	0.00282
hzsp34.78 (antibody, human IgG1, lambda, L234A L235A, V domains shown, CDR mutant of hzsp34.24; IgG1 L234A L235A, lambda) VH: EVQLVESGGGLVQPGGSLKLSCAASGFTFGTYAMNWVRQASGKGLEWVGRIRSKYNNYATYYADSVKDRFTISRDDSKSTLYLQMNSLKTEDTAVYYCARHGNFGQSYVSWFAYWGQGTTVTVSS VL: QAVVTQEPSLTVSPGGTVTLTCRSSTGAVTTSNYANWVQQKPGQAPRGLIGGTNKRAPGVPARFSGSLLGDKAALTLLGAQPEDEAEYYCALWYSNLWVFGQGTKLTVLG	0.00224

Now consider the entry below.
Sample hzsp34.104 (antibody, human IgG1, lambda, L234A L235A, V domains shown, CDR mutant of hzsp34.24; IgG1 L234A L235A, lambda) VH: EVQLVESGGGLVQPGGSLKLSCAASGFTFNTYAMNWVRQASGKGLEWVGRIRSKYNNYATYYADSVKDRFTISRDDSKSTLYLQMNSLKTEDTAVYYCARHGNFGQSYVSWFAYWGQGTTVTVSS VL: QAVVTQEPSLTVSPGGTVTLTCRSSTGAVTGSNYANWVQQKPGQAPRGLIGGTNKRAPGVPARFSGSLLGDKAALTLLGAQPEDEAEYYCALWYSNLWVFGQGTKLTVLG — what was its koff? 0.00198
